This listing pairs variants with measured protein stability index.
B1: DVL3 (parent)
chain: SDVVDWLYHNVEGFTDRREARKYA

variants of: B1; test: protein stability index of a GFP-peptide fusion (GPS, HEK-293T) (PSI 1-6); higher = more stable; conditions: c terminus: a fixed tail appended;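 also: lentivirally expressed fusions sorted by FACS into six bins by GFP to DsRed ratio, PSI derived from sequencing read proportions per bin multiplied by bin number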

Inquiry: If you can, please state the reported protein stability index value of R21H .
Reply text: 3.02

Inquiry: Data request, read-out protein stability index, for K22P
Reply text: 3.31

Inquiry: Would you mind telling me what protein stability index value was observed for E12Q ?
Reply text: 2.98

Inquiry: Using the record for E19T , report its protein stability index.
Reply text: 2.64

Inquiry: Give its protein stability index value. Item: T15R
Reply text: 2.91
